B1: Ribonuclease HI, P0A7Y4 (parent)
chain: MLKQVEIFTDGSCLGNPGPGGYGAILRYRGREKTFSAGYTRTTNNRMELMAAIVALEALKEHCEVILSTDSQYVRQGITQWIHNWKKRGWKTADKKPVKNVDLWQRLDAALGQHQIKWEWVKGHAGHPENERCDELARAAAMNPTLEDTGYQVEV

Variants of: B1
Conditions: Escherichia coli (strain K12); pH 5.5; Thermal; CD; Sodium acetate 10 mM; NaCl 0.1 M; reversible: yes; structure 2RN2; whole UniProt chain shown
Please respond with reported Tm for every item in the list.
State just the number; it will be interpreted in °C.

Ask: Write down Tm measured for item V74L
Result: 55.8

Ask: Give the reported value of Tm for this record: H62P
Result: 56.6

Ask: Identify measured Tm corresponding to G23A
Result: 54.3

Ask: Return Tm for the following variant: D134H
Result: 59.5

All figures here come from FireProtDB (doi:10.1021/bi00025a018).
